- TEST DETAILS: non-covalent RecA intein splicing inhibitors, dose response, biochemical, cell-free, fluorescence, secondary screen (AID 449750)
The source made the active and inactive calls. The rule behind the calls is not given here.
Hello, when you answer, please use one of the following outcomes: active, inactive

{"COMPOUND": "CC(=O)N1CCC2(CC1)C(C#N)=C(N)Oc1n[nH]c(C)c12", "LABEL CLASS": "inactive"}

Incoming: Field: outcome | Entry: Cc1ccc(OC(=O)c2ccc([N+](=O)[O-])cc2Cl)cn1
Outgoing: inactive

Incoming: Field: outcome | Entry: Cc1ccc(NC2=C(N3CCOCC3)C(=O)c3ccccc3C2=O)cc1
Outgoing: active

Incoming: Field: outcome | Entry: COc1cccc(-c2[nH]nc3c2C(c2ccsc2)C(C#N)=C(N)O3)c1 (stereo not drawn)
Outgoing: active

Incoming: Field: outcome | Entry: O=C(CCl)Nc1cc(-c2ccccc2)nn1-c1ccccc1
Outgoing: active

Incoming: Field: outcome | Entry: COc1ccc(CC(=O)N/N=C(/C)CC(=O)N(C)c2ccccc2)cc1
Outgoing: inactive

Incoming: Field: outcome | Entry: Cn1ncnc2c(=O)n(C)c(=O)nc1-2
Outgoing: active

###

- TEST DETAILS: non-covalent RecA intein splicing inhibitors, dose response, biochemical, cell-free, fluorescence, secondary screen (AID 449750)
Activity calls are given as the source filed them. How the calls were made is not given here.
RESULT TYPE: AC50

{"MOLECULE": "CCOC(=O)C(C(=O)OCC)c1cc(Br)c2noc3c2c1C(=O)c1ccccc1-3", "AC50": "8.74 µM"}
{"MOLECULE": "CN(C)CCSc1nnc2[nH]c3ccccc3c2n1", "AC50": "> 38 µM (inactive)"}
{"MOLECULE": "COc1cc(C=C(c2nc3ccccc3s2)c2nc3ccccc3s2)ccc1O", "AC50": "3.26 µM"}

AC50 reported for this molecule O=c1cc(-c2ccc(Cl)cc2)[nH][nH]1 : 14.2 µM

AC50 reported for this molecule CCOc1ccccc1CNc1ccc(O)cc1 : 37.6 µM

AC50 reported for this molecule COc1ccc2ccc3c(c2c1)N=CC1(O3)N(C)c2ccccc2C1(C)C (configuration not stated) : 4.49 µM

AC50 reported for this molecule O=C1C(Cl)=C(N2CCCCC2)C(=O)N1c1ccccc1 : > 12 µM (inactive)

AC50 reported for this molecule COc1ccc(S(=O)(=O)/N=C2\C=C(NS(=O)(=O)c3ccccc3)C(=O)c3ccccc32)cc1 : 2.95 µM

###

- TEST DETAILS: non-covalent RecA intein splicing inhibitors, dose response, biochemical, cell-free, fluorescence, secondary screen (AID 449750)
Activity calls are given as the source filed them. The rule behind the calls is not given here.
Hello, when you answer, please use one of the following outcomes: active, inactive

{"SMI": "COc1cc(C=C2C(=O)c3ccccc3C2=O)ccc1O", "LABEL CLASS": "inactive"}
{"SMI": "CC1=NN(c2ccccc2)C(=O)/C1=C\\c1cn(CCC#N)nc1-c1ccc(Cl)cc1", "LABEL CLASS": "inactive"}
{"SMI": "Cc1[nH]n(-c2ccccc2)c(=O)c1C(c1ccc(C(=O)O)cc1)c1c(C)[nH]n(-c2ccccc2)c1=O", "LABEL CLASS": "active"}
{"SMI": "CSc1nc(-c2ccc(Cl)cc2)nn1C(=O)c1ccco1", "LABEL CLASS": "inactive"}

Then there is this compound:
Incoming: Field: outcome | Entry: C/C(CC(=O)Nc1cc(C)ccn1)=N\NC(=O)c1ccccc1C
Outgoing: inactive

The reported numbers originate from PubChem BioAssay AID449750.
